target under test: HLA-A*01:01
protocol description: IEDB peptide-MHC binding, purified MHC/competitive/fluorescence; filed as Kd, often an IC50 or EC50 that approximates it; bounds were set here for any values at or beyond the usual limits of such assays
assay conditions: source organism: Influenza A virus (A/swine/Ohio/24366/2007(H1N1))
experimental endpoint: Kd

Q: Look up Kd: `STASSWSY`
Result: ≥ 20 µM

---

target under test: HLA-A*02:01
protocol description: IEDB peptide-MHC binding, purified MHC/direct/fluorescence; filed as Kd, often an IC50 or EC50 that approximates it; bounds were set here for any values at or beyond the usual limits of such assays
assay conditions: source organism: Influenza A virus (A/Duck/Shantou/2088/01(H9N2))
pKd: −log10 of the molar value.
experimental endpoint: pKd

Q: Look up pKd: `EEMATKADY`
Result: ≤ 4.70
